B1: library; numbered along this chain (parent)
chain: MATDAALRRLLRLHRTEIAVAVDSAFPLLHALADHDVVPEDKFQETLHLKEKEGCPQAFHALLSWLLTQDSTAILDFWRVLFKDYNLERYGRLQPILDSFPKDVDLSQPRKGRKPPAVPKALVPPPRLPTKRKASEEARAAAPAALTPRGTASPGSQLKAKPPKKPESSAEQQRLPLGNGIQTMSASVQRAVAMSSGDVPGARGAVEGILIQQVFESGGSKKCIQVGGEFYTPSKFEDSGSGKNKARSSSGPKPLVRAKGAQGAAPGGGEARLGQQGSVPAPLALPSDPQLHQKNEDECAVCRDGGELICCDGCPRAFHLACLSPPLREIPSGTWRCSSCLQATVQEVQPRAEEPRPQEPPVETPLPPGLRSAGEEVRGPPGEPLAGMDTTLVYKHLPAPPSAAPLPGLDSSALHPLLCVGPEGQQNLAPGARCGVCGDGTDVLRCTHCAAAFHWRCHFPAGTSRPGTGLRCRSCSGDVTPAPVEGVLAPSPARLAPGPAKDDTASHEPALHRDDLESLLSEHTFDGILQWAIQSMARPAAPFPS

- Variants of: B1
- Test Description: AIRE transcriptional activation functional score (insulin promoter-GFP; nonsense median 0, synonymous median 1) (normalised score); higher = higher AIRE activity (more reporter activation)
- Condition Summary: with insulin promoter-GFP reporter in HEK293
Please go through the items and note down their AIRE transcriptional activation functional score.
The response must contain the number and no unit.

// AIRE transcriptional activation functional score lookup, variant = "R12Q" , result: -1.11

Kindly note the recorded AIRE transcriptional activation functional score for "L210M" , which is 0.6

# AIRE transcriptional activation functional score of "P357R" = 1.07

AIRE transcriptional activation functional score in this record for "G240C" : 0.742

AIRE transcriptional activation functional score measured on "G201Q" = 1.05

// field: AIRE transcriptional activation functional score; key: "T68K" ; value = 0.868

AIRE transcriptional activation functional score measured on "G263I" = -0.607

Please fill in: AIRE transcriptional activation functional score reported for "L519H" = -0.138

"G477V" yielded AIRE transcriptional activation functional score of 1.13

The variant identified as "T46F" registered its AIRE transcriptional activation functional score at -1.2

So, "T3K" ? Its AIRE transcriptional activation functional score was 1.31

Entry "A58E" , AIRE transcriptional activation functional score reported as -0.0545

Field AIRE transcriptional activation functional score (entry "P252R" ) reads 0.567

Looking up "G267T" , I see its AIRE transcriptional activation functional score listed as 1.8

Quick note, AIRE transcriptional activation functional score for "S217L" landed at 0.613

Field AIRE transcriptional activation functional score (entry "A482P" ) reads 1.92

Reported AIRE transcriptional activation functional score for "A134V" was 1.34

For record "P126C" the listed AIRE transcriptional activation functional score is 0.317

Just so you know, measured AIRE transcriptional activation functional score for "E207K" came out at 0.169

Record summary for "S153P" : reported AIRE transcriptional activation functional score = 1.7

Sample "K501R" ; AIRE transcriptional activation functional score observed: 1.11

Please fill in: AIRE transcriptional activation functional score reported for "T183D" = 0.425

// field: AIRE transcriptional activation functional score; key: "I181P" ; value = -1.22

AIRE transcriptional activation functional score in this record for "N295W" : 0.869

Data point: "R328P" ; AIRE transcriptional activation functional score = 1.22

Record "W78V" , field AIRE transcriptional activation functional score: -0.0156

Noted for "K243A" : its AIRE transcriptional activation functional score reads 0.56

variant "A450Q" , AIRE transcriptional activation functional score observed: 1.13

For this variant ( "P422R" ), measured AIRE transcriptional activation functional score is 0.868

Measured AIRE transcriptional activation functional score of "E353Q" : 1.18

Measured AIRE transcriptional activation functional score of "S217N" : 0.895

The variant identified as "G438C" registered its AIRE transcriptional activation functional score at 1.25

Value of AIRE transcriptional activation functional score reported for the variant "E423D" is 1.25

// AIRE transcriptional activation functional score value for "V123A" : 0.886

Summary for this variant, "S24T" : AIRE transcriptional activation functional score is -0.0952

// recorded AIRE transcriptional activation functional score for "F215K" : -0.187

# AIRE transcriptional activation functional score (variant: "H48V" ) is 1.53

"K259N" has a reported AIRE transcriptional activation functional score of 1.03

The value of AIRE transcriptional activation functional score measured for the variant "L409K" turned out to be 0.881

Summary for this variant, "P361W" : AIRE transcriptional activation functional score is 1.29

AIRE transcriptional activation functional score for "P326R" is 1.17

Measured AIRE transcriptional activation functional score, "P154V" : 0.461

The reported value for "F230V" in terms of AIRE transcriptional activation functional score is 0.617

Reported AIRE transcriptional activation functional score for "W335F" was 0.764

// sample "D515I" , its AIRE transcriptional activation functional score was 0.101

Looking up "S476Y" , I found its AIRE transcriptional activation functional score recorded as 1.19
